Values from ChEMBL document CHEMBL3774362

testedOn: Amyloid-beta precursor protein (Homo sapiens)
assayProtocol: Inhibition of Amyloid beta (1 to 42) (unknown origin) self aggregation at 20 uM for 24 hrs by Thioflavin T-based fluorometric assay
parameterMeasured: inhibition (%)

Please review the entries below; each comes with its answer.
compound	numericResult
COc1ccc(CN2C(=O)C[C@@H](c3ccccc3Cl)[C@H]([N+](=O)[O-])[C@H]2c2ccc(O)cc2)cc1 (racemic)	28.7
O=C1C[C@@H](c2ccccc2Cl)[C@H]([N+](=O)[O-])[C@@H](c2ccc(O)cc2)N1Cc1cccnc1 (racemic)	41.6
O=C1C[C@@H](c2ccccc2)[C@H]([N+](=O)[O-])[C@@H](c2ccc(O)cc2)N1Cc1ccccc1 (racemic)	43.6
O=C1C[C@@H](c2ccccc2)[C@H]([N+](=O)[O-])[C@@H](c2ccc(O)cc2)N1Cc1cccnc1 (racemic)	43.3
COc1cccc(CN2C(=O)C[C@@H](c3ccc(C)cc3)[C@H]([N+](=O)[O-])[C@H]2c2ccc(O)cc2)c1 (racemic)	48.9

[I] Cc1ccc(CN2C(=O)C[C@@H](c3ccccc3)[C@H]([N+](=O)[O-])[C@H]2c2ccc(O)cc2)cc1 (racemic)
[II] O=C1C[C@@H](c2ccccc2)[C@H]([N+](=O)[O-])[C@@H](c2ccc(O)cc2)N1Cc1ccc(F)cc1 (racemic)
Exam item: Which shows the larger inhibition value: I or II ? Answer with the label corresponding to your selection.
Marked response: I
